B1: LINE1-mini (parent)
chain: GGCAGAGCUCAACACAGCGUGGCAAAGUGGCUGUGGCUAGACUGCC

- Variants of: B1
- ASSAY_SUMMARY: self-cleavage, relative activity (ratio to wild type); higher = more cleavage; in vitro, sequencing; the parent is a self-cleaving ribozyme
REPORTED_ENDPOINT: self-cleavage
Lab note: record the figure alone, no unit after it.

Give the measured self-cleavage of CGCAGAGCUCAACACAGCGUGGCAAAGUGCCUGUGGCUAGACUGCC [G1C G30C] .
0.04

Quick one: self-cleavage of GGCAGAGCUCAACACAGCGUGGCAAAGUGGCUUUGGCUGGACUGCC [G33U A39G] ?
0.12

Give its self-cleavage value. Item: GGCAGAACUCAACACAGCGUGGCAAAGUGGCCGUGGCUAGACUGCC [G7A U32C]
0.17

What value of self-cleavage has been reported for the following variant? GGCAGAGCACAACACAGCGUGGCAAAGUGGCAGUGGCUAGACUGCC [U9A U32A]
0.11

For the variant GGCAGAGCUCAACACUGCGUGGCAAAGUGGCUGUGGCUAGACUACC [A16U G44A] , what self-cleavage is on record?
0.05

Which self-cleavage is listed for GGCUGAGCUCAACACAGCGUGGCAUAGUGGCUGUGGCUAGACUGCC [A4U A25U] ?
0.84

For the variant GGCCGAGCUCAACGCAGCGUGGCAAAGUGGCUGUGGCUAGACUGCC [A4C A14G] , what self-cleavage is on record?
0.1
